// values below are reported inhibition at 5 µM
Biological target: HIPK1 (Homo sapiens, UniProt Q86Z02)
Construct: purchased Life Technologies (Invitrogen SelectScreen); Dyrk1A, Dyrk2 and CK2α in-house or gifts
Sequence (Q86Z02 whole entry): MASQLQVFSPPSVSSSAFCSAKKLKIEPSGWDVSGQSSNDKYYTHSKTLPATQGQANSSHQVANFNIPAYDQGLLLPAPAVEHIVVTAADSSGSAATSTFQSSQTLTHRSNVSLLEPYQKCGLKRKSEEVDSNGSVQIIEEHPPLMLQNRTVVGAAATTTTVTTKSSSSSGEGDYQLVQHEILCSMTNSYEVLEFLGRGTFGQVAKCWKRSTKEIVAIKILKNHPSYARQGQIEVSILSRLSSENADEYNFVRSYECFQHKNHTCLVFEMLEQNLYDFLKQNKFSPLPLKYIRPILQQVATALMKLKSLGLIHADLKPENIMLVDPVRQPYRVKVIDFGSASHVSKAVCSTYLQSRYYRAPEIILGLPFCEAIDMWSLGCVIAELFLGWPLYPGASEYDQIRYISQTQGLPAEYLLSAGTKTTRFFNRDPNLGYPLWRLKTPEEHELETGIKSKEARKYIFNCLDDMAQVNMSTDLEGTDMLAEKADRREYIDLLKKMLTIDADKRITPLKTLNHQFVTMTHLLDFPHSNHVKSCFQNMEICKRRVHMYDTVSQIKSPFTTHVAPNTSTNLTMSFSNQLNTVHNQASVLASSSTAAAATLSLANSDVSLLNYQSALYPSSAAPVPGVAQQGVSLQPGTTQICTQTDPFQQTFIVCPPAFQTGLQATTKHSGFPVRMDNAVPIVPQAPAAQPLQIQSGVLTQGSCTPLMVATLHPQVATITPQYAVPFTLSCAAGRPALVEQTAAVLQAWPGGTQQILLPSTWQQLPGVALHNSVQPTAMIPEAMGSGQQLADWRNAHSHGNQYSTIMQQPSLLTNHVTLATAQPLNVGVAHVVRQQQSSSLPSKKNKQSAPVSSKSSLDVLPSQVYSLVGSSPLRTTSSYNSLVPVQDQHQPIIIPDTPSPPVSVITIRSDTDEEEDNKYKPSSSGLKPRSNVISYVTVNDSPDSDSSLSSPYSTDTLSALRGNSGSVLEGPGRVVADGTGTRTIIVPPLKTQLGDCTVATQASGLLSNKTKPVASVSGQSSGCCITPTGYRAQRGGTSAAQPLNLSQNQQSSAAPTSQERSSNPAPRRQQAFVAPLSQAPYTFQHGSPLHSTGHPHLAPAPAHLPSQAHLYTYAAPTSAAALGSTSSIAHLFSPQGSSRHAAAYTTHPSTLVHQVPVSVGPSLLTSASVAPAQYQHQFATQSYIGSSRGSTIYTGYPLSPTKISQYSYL
Assay: Selectivity panel HIPK1
Format: biochemical
Conditions: 5 µM inhibitor
Could you give me the number in %? Just the number is fine.

Below: 4 compounds and their reported inhibition at 5 µM.
> print(dat)
                                   compound                          testedtarget  recordednumber
1  c1cncc(-c2csc(-c3cncnc3)c2)c1 [Compound 41]  HIPK1 (Homo sapiens, UniProt Q86Z02)               9
2  c1cncc(-c2csc(-c3cnco3)c2)c1 [Compound 33]  HIPK1 (Homo sapiens, UniProt Q86Z02)               7
3  c1cncc(-c2cc(-c3cncs3)cs2)c1 [Compound 29]  HIPK1 (Homo sapiens, UniProt Q86Z02)               4
4  Cn1cc(-c2csc(-c3cccnc3)c2)cn1 [Compound 30]  HIPK1 (Homo sapiens, UniProt Q86Z02)               8

// c1cncc(-c2csc(-c3cncs3)c2)c1 [Compound 48] : inhibition at 5 µM value = 9

====

Biological target: GSK3β (Homo sapiens)
Construct: purchased Life Technologies (Invitrogen SelectScreen); Dyrk1A, Dyrk2 and CK2α in-house or gifts
Sequence (P49841 whole entry): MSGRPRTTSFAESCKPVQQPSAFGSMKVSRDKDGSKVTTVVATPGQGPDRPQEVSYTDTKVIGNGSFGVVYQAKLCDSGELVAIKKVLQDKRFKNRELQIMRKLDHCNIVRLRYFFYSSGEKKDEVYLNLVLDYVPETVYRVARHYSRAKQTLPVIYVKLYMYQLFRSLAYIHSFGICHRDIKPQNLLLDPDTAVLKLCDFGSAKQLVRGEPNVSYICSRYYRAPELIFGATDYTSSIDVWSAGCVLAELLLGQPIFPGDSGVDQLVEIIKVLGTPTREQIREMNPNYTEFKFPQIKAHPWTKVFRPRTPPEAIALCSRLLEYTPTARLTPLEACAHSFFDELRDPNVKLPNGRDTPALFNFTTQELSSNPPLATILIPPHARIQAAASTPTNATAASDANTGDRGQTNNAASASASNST
Test: Selectivity panel GSK3β
Assay type: biochemical
Conditions: 5 µM inhibitor
inhibition at 5 µM values by entry
Could you give me the number in %? Just the number is fine.

Completed entries (count: 3):
> print(dat)
                    entrysmiles  recordednumber
1  c1cncc(-c2csc(-c3cnco3)c2)c1              10
2  c1cncc(-c2csc(-c3cncs3)c2)c1              25
3  c1cncc(-c2cc(-c3cncs3)cs2)c1               0

The molecule listed as `c1cncc(-c2csc(-c3cncnc3)c2)c1` has a reported inhibition at 5 µM of 14

`Cn1cc(-c2csc(-c3cccnc3)c2)cn1` yielded inhibition at 5 µM of 17

====

Molecular target: Ck1δ (Homo sapiens)
Construct: purchased Life Technologies (Invitrogen SelectScreen); Dyrk1A, Dyrk2 and CK2α in-house or gifts
Sequence (P48730 whole entry): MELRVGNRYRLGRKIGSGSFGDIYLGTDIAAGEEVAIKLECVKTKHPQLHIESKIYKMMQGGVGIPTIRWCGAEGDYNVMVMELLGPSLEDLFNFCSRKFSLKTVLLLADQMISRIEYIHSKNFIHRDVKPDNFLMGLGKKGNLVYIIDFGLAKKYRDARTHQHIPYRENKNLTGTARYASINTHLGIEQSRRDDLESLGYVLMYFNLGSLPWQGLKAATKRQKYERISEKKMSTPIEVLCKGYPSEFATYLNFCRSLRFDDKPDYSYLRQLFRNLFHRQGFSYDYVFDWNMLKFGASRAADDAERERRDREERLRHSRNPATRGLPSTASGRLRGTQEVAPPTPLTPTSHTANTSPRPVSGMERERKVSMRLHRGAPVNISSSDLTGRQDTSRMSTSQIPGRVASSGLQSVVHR
Assay: Selectivity panel Ck1δ
Assay type: biochemical
Settings: 5 µM inhibitor
The molecules listed here are annotated with their inhibition at 5 µM.
A number alone suffices; assume %.

Worked cases, inhibition at 5 µM given:
> print(dat)
                     entrysmiles         testedtarget  unitsofmeasure  recordednumber
1   c1cncc(-c2cc(-c3cncs3)cs2)c1  Ck1δ (Homo sapiens)               %               0
2   c1cncc(-c2csc(-c3cncs3)c2)c1  Ck1δ (Homo sapiens)               %               1
3  Cn1cc(-c2csc(-c3cccnc3)c2)cn1  Ck1δ (Homo sapiens)               %              -1
4  c1cncc(-c2csc(-c3cncnc3)c2)c1  Ck1δ (Homo sapiens)               %               0

Entry under test: `c1cncc(-c2csc(-c3cnco3)c2)c1` . Its inhibition at 5 µM was 0

====

inhibition at 5 µM listing for selected compounds.
Biological target: MLK1 (Homo sapiens, UniProt P80192)
Construct: purchased Life Technologies (Invitrogen SelectScreen); Dyrk1A, Dyrk2 and CK2α in-house or gifts
Sequence (P80192 whole entry): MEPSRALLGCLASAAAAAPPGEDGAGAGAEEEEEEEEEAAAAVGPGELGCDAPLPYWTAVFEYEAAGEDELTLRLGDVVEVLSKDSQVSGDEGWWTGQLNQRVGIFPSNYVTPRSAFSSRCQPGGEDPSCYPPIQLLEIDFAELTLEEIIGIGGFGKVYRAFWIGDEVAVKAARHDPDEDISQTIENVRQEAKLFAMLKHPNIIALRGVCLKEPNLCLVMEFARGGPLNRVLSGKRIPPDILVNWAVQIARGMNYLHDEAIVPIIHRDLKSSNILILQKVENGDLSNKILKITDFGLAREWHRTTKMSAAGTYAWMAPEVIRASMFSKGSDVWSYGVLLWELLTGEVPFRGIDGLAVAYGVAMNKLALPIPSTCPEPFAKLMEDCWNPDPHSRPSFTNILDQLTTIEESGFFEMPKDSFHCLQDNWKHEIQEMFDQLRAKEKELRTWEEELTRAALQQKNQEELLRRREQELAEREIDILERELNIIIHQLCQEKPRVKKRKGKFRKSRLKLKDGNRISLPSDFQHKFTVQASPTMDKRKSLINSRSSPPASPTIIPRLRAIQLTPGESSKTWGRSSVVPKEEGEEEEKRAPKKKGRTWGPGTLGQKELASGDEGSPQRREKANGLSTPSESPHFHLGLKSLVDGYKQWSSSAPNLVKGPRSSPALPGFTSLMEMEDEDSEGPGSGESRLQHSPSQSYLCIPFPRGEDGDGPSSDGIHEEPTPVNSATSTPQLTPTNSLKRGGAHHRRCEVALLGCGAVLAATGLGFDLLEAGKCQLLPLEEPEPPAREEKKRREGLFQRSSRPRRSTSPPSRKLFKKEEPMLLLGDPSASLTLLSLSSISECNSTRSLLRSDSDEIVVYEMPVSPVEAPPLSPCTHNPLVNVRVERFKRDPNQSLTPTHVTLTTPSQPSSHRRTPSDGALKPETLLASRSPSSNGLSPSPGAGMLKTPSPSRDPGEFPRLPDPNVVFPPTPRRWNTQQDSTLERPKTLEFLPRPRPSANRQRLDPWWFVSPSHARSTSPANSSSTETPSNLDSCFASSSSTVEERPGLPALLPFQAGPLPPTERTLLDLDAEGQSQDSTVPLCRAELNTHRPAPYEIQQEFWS
Assay: Selectivity panel MLK1
Format: biochemical
Conditions: 5 µM inhibitor
Numbers only; they are read as %.

Some entries whose results are on file:
> print(dat)
                                   compound          resulttype  unitsofmeasure  recordednumber
1  c1cncc(-c2csc(-c3cnco3)c2)c1 [Compound 33]  inhibition at 5 µM               %               0
2  c1cncc(-c2cc(-c3cncs3)cs2)c1 [Compound 29]  inhibition at 5 µM               %              15
3  Cn1cc(-c2csc(-c3cccnc3)c2)cn1 [Compound 30]  inhibition at 5 µM               %              16
4  c1cncc(-c2csc(-c3cncnc3)c2)c1 [Compound 41]  inhibition at 5 µM               %               3

Switching to the query record.
The reported inhibition at 5 µM of the compound c1cncc(-c2csc(-c3cncs3)c2)c1 [Compound 48] was 17
